Molecular target: Pim-2 (Homo sapiens (Human), UniProt Q9P1W9)
Sequence (Q9P1W9 whole entry): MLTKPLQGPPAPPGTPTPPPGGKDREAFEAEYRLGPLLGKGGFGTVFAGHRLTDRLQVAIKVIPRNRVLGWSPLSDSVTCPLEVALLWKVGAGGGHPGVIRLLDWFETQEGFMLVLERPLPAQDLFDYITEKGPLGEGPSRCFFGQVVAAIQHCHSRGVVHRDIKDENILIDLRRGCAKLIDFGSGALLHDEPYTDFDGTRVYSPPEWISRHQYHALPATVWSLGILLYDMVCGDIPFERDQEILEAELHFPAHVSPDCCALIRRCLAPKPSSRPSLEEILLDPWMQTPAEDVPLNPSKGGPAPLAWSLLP
Test: Pim enzyme assay (HTRF, 96-well), Pim-2
Type: biochemical
Conditions: full length recombinant Pim-2, biotinylated-BAD (S112) peptide, 10-point curve, 45 min RT, read-out: Pim-2 IC50 IP
Quantity kind: pIC50
The scale used: pIC50 is minus the common logarithm of the concentration in molar units.

Sample answers from the record:
> print(dat)
                                   compound  quantity.kind  value.measured
1  O=C1NCCc2[nH]c(-c3cccc4ccc(Cc5ccccc5)nc34)cc21 [Example 3]          pIC50            7.43
2  CC1Cc2[nH]c(-c3cccc4ccc(Nc5ccccc5)nc34)cc2C(=O)N1 (single isomer, unassigned) [Example 33]          pIC50            7.45

We next turn to a different compound, shown below.
Enquiry: Item Cc1nc2cccc(-c3cc4c([nH]3)CCNC4=O)c2nc1N1CCOCC1 [Example 133] with Pim-2 (Homo sapiens (Human), UniProt Q9P1W9) - pIC50?
Return: 7.00
